test: Antiproliferative activity against Wistar/Sprague-Dawley rat cardiac fibroblasts assessed as inhibition of cell proliferation measured after 24 hrs by MTT assay; assay type: functional, CF [Rat heart fibroblast]; details: Fibroblast
Below is a list of entries, each paired with its recorded IC50 value.
Please state the figure in nM; there is no need to write the unit.

# annotated cases, reported IC50 shown
O=C(N/N=C/c1ccc(Cl)cc1)N1CCc2ncnc(Nc3cccc(C(F)(F)F)c3)c2C1 = 1210
O=C(N/N=C/c1ccc(Cl)cc1)N1CCc2ncnc(Nc3ccc(F)c(Cl)c3)c2C1 = 870

*Q* Look up IC50 for this molecule: Cc1ccc(/C=N/NC(=O)N2CCc3ncnc(Nc4cccc(C(F)(F)F)c4)c3C2)cc1
*A* 1510

* * *

target: Autotaxin (Homo sapiens, UniProt Q13822); test: Inhibition of human ATX using FS-3 as substrate measured after 30 mins by fluorescence plate reader assay
Reported metric: pIC50
Kindly note that pIC50 refers to -log10 of the concentration in mol/L and answer with the value alone.

*Q* Look up pIC50 for this molecule: O=C(CCc1nc2ccccc2s1)N1CCc2ncnc(Cc3ccc(F)cc3)c2C1
*A* 7.54

* * *

molecular target: Autotaxin (Homo sapiens); experiment: Inhibition of glycosylated human ATX using FS-3 as substrate preincubated for 45 mins under shaking condition followed by substrate addition and measured after 45 mins by fluorescence assay
Below is a list of entries, each paired with its recorded IC50 value.
Please state the figure in nM; there is no need to write the unit.

O=C(N/N=C/c1ccc(OC(F)(F)F)cc1)N1CCc2ncnc(Nc3cccc(C(F)(F)F)c3)c2C1 = 41.2

From here, focus on the item given below.
*Q* Look up IC50 for this molecule: O=C(N/N=C/c1ccc(Cl)cc1)N1CCc2ncnc(Nc3cccc(Br)c3)c2C1
*A* 27.5

* * *

biological target: Autotaxin (Homo sapiens, UniProt Q13822); assay: Inhibition of glycosylated human ATX using FS-3 as substrate preincubated for 45 mins under shaking condition followed by substrate addition and measured after 45 mins by fluorescence assay
Reported metric: pIC50
Kindly note that pIC50 refers to -log10 of the concentration in mol/L and answer with the value alone.

# annotated cases, reported pIC50 shown
CS(=O)(=O)c1ccc(/C=N/NC(=O)N2CCc3ncnc(Nc4cccc(C(F)(F)F)c4)c3C2)cc1 = 7.45
CS(=O)(=O)c1ccc(/C=N/NC(=O)N2CCc3ncnc(Nc4ccc(F)c(Cl)c4)c3C2)cc1 = 7.68
O=C(N/N=C/c1ccc(F)cc1Cl)N1CCc2ncnc(Nc3cccc(C(F)(F)F)c3)c2C1 = 7.57
O=C(N/N=C/c1cc(C(F)(F)F)cc(C(F)(F)F)c1)N1CCc2ncnc(Nc3cccc(Br)c3)c2C1 = 7.54
Cc1ccc(/C=N/NC(=O)N2CCc3ncnc(Nc4cccc(C(F)(F)F)c4)c3C2)cc1 = 7.54

*Q* Look up pIC50 for this molecule: O=C(N/N=C/c1cc([N+](=O)[O-])ccc1Cl)N1CCc2ncnc(Nc3ccc(F)c(Cl)c3)c2C1
*A* 7.36

*Q* Look up pIC50 for this molecule: O=C(N/N=C/c1ccc(Cl)cc1Cl)N1CCc2ncnc(Nc3cccc(C(F)(F)F)c3)c2C1
*A* 7.47

*Q* Look up pIC50 for this molecule: CS(=O)(=O)c1ccc(/C=N/NC(=O)N2CCc3ncnc(Nc4cccc(Br)c4)c3C2)cc1
*A* 7.46

*Q* Look up pIC50 for this molecule: O=C(N/N=C/c1cccc(C(F)(F)F)c1)N1CCc2ncnc(Nc3cccc(Br)c3)c2C1
*A* 7.52

*Q* Look up pIC50 for this molecule: O=C(N/N=C/c1ccc(O)c(Br)c1)N1CCc2ncnc(Nc3ccc(F)c(Cl)c3)c2C1
*A* 7.50

*Q* Look up pIC50 for this molecule: O=C(N/N=C/c1ccc(Cl)cc1)N1CCc2ncnc(Nc3ccc(F)c(Cl)c3)c2C1
*A* 7.62

*Q* Look up pIC50 for this molecule: O=C(N/N=C/c1ccc(Cl)cc1)N1CCc2ncnc(Nc3cccc(C(F)(F)F)c3)c2C1
*A* 7.82

*Q* Look up pIC50 for this molecule: O=C(CCc1nc2ccccc2s1)N1CCc2ncnc(Cc3ccc(F)cc3)c2C1
*A* 7.98

*Q* Look up pIC50 for this molecule: O=C(N/N=C/c1cccc(Br)c1)N1CCc2ncnc(Nc3cccc(C(F)(F)F)c3)c2C1
*A* 7.45
